These data points were gathered from PubChem BioAssay (NCI).

# Tested on: UACC-257 melanoma
# procedure_summary: NCI tumour cell line growth inhibition, 48 h
Reported TGI values follow for various compounds

INSERT INTO measurements (compound, measure_name, test_value) VALUES
  ('CC(=O)n1c(-c2ccc(Cl)cc2)nc2c(c1=O)C(c1ccc(Cl)cc1)c1sc3c(Cl)cccc3c1O2 (stereo not given)', 'TGI', '3.9 µM'),
  ('CCOP(=O)(OCC)c1cc(-c2ccccc2)ccc1N', 'TGI', '> 100 µM'),
  ('CC/C=C\C/C=C\C1CC(=O)NCCCNCCCCN1 (stereo not given)', 'TGI', '> 100 µM');

[Q] Would you mind telling me what TGI value was observed for N#CC(C#N)=Cc1cccc(Oc2ccccc2)c1 ?
[A] 28.1 µM

[Q] Also check C=CCOc1c(Br)cc(Br)cc1Br
[A] > 100 µM

[Q] Also check CNC(=O)c1cc(Oc2ccc(NC(=O)Nc3ccc(Cl)c(OC(F)(F)F)c3)c(F)c2)ccn1
[A] 6.54 µM

[Q] Also check COc1ccc(/C=C/C(=O)c2sc(-n3nc(-c4ccccc4)cc3-c3ccccc3)nc2C)cc1OC
[A] > 100 µM

[Q] Also check Cc1cc(C)nc(NS(=O)(=O)c2ccc(Nc3c4ccccc4nc4c(C(=O)N5CCN(CCOS(C)(=O)=O)CC5)ccc(Cl)c34)cc2)n1
[A] > 100 µM

[Q] Also check Cc1ncc([N+](=O)[O-])n1CCNC(=O)CCCCn1ccnc1[N+](=O)[O-]
[A] > 100 µM

[Q] Also check CCOC(=O)C(C)NC(=O)N(C)C12CC3CC(CC(C3)C1)C2 (stereo not given)
[A] 406 µM

---

# Tested on: CAKI-1 renal
# procedure_summary: NCI tumour cell line growth inhibition, 48 h
measure_name: TGI (µM)
Report the value in µM with no unit label.

Past entries and their recorded results:
INSERT INTO assay_data (compound, measured_on, measure_name, unit_descriptor, test_value) VALUES
  ('O=C(NCCCNCCCCNCCCNC(=O)C(F)(F)F)C(F)(F)F', 'CAKI-1 renal', 'TGI', 'µM', 40.4),
  ('Cc1ccc(-c2nc(C(Cl)Cl)n3nc(-c4ccccc4)cc3n2)cc1', 'CAKI-1 renal', 'TGI', 'µM', 1.49),
  ('Cc1ccc2/c(=C/c3ccc(N(C)C)cc3)c3cc(-c4ccccc4)[n+](C)n3c2c1', 'CAKI-1 renal', 'TGI', 'µM', 6.58);

Please examine the following record next.
[Q] Would you mind telling me what TGI value was observed for COc1cc(/C=C2\CC3C4CC=C5CC(N6CCCC6)CC[C@]5(C)C4CC[C@]3(C)C2OC(C)=O)ccc1OCCN1CCCC1 (some centres undefined) ?
[A] 3.93

---

# System: EKVX NSCLC
# procedure_summary: NCI tumour cell line growth inhibition, 48 h
Reported TGI values follow for various compounds

Past entries and their recorded results:
INSERT INTO assay_data (compound, measure_name, test_value) VALUES
  ('C=C1CC2C(=O)N(c3ccccc3)C(=O)C2CC1n1[nH]c(=O)n(Cc2ccccc2)c1=O (stereo unspecified)', 'TGI', '> 100 µM'),
  ('O=C1NC(=S)S/C1=C/c1ccco1', 'TGI', '> 100 µM'),
  ('Clc1cccc(C2ON=C(c3ccccc3)N2C23CC4CC(CC(C4)C2)C3)c1Cl (stereo unspecified)', 'TGI', '> 10 µM'),
  ('Cc1c(-c2nc(N)nc(C3CC3)c2C)nc(N)nc1C1CC1', 'TGI', '> 100 µM'),
  ('COC(=O)C1=C(C(=O)OC)C2(C)CCC(=O)C1O2 (stereo unspecified)', 'TGI', '> 10 µM');

Please examine the following record next.
[Q] Would you mind telling me what TGI value was observed for COc1ccccc1C(=O)c1ccc2ccccc2c1 ?
[A] 77.8 µM

---

# System: HCT-116 colon
# procedure_summary: NCI tumour cell line growth inhibition, 48 h
measure_name: TGI

INSERT INTO assay_data (compound, test_value) VALUES
  ('CCCC[C@@H]1CCN2C[C@@H](O)[C@@H](O)[C@H]2[C@@H]1O', '> 100 µM'),
  ('CC/C=C\C/C=C\C1CC(=O)NCCCNCCCCN1 (stereo unspecified)', '> 100 µM'),
  ('COc1ccc(CN2C(=O)C(=O)N(C)C2=O)c2ccccc12', '> 10 µM'),
  ('c1ccc(-c2ccc(N=NN3CCCC3)cc2)cc1', '> 100 µM'),
  ('CCOC(=O)Cc1nn2c(=O)cc(C)nc2s1', '> 100 µM'),
  ('COc1ccc(C2C(N)=NCC2c2ccccn2)cc1 (stereo unspecified)', '> 100 µM');

[Q] Would you mind telling me what TGI value was observed for CC1(C)[C@@H]2C[C@H]1c1cnc(-c3ccccn3)cc1[C@H]2C(O)[C@@H]1c2cc(-c3ccccn3)ncc2[C@H]2C[C@@H]1C2(C)C (stereo partly specified) ?
[A] 5.34 µM

[Q] Also check CS(=O)(=O)Nc1ccc(-c2ccc3c(NC(=O)C4CC4)n[nH]c3c2)cc1
[A] > 25 µM

[Q] Also check N#CC(C#N)=Cc1cccc(Oc2ccccc2)c1
[A] 32.9 µM

[Q] Also check CCn1c(-c2nonc2N)nc2ccc(F)cc21
[A] > 25 µM

[Q] Also check N#Cc1c(-c2ccccc2)nc2c(c(-c3ccccc3)nn2-c2ccccc2)c1-c1ccc(O)cc1
[A] 7.32 µM

---

# System: LOX IMVI melanoma
# procedure_summary: NCI tumour cell line growth inhibition, 48 h; in the data active means GI50 below about 0.43 µM; inactive means the rest
Parameter call: string, one of true for active, false for inactive

Check out these entries, answers already filled in.
INSERT INTO measurements (chemical_smiles, class) VALUES
  ('Cc1ccc2/c(=C/c3ccc(N(C)C)cc3)c3cc(-c4ccccc4)[n+](C)n3c2c1', 'true'),
  ('CS(=O)(=O)Nc1ccc(-c2ccc3c(NC(=O)C4CC4)n[nH]c3c2)cc1', 'false'),
  ('COc1cc(-c2cn(C)c(=O)c(C)c2C)cc(OC)c1CN1CC[C@H](N2CCN(c3ccc(N[C@H]4CCC(=O)NC4=O)cc3F)CC2)C(F)(F)C1', 'false');

Next, consider the following molecule.
[Q] For CCn1c(-c2nonc2N)nc2ccc(F)cc21 , what call appears in the results of this test?
[A] false

---

Reported TGI values follow for various molecules
# Test system: RPMI-8226 leukemia
# procedure_summary: NCI tumour cell line growth inhibition, 48 h

Past entries and their recorded results:
INSERT INTO results (molecule, test_value) VALUES
  ('c1ccc(-c2ccc(N=NN3CCCC3)cc2)cc1', '> 100 µM'),
  ('CC(=O)n1c(-c2ccc(Cl)cc2)nc2c(c1=O)C(c1ccc(Cl)cc1)c1sc3c(Cl)cccc3c1O2 (centres undefined)', '4.75 µM'),
  ('O=C(/C=C1\C[C@H]2C=Nc3ccccc3C(=O)N2C1)NCCCCCNC(=O)/C=C1\C[C@H]2C=Nc3ccccc3C(=O)N2C1', '> 72.7 µM'),
  ('C=C1CC2C(=O)N(c3ccccc3)C(=O)C2CC1n1[nH]c(=O)n(Cc2ccccc2)c1=O (centres undefined)', '> 100 µM'),
  ('C(=N/Nc1ccc(-c2nc3ccccc3[nH]2)cc1)/c1c(-c2ccccc2)[nH]c2ccccc12', '0.82 µM');

[Q] Would you mind telling me what TGI value was observed for CCOC1NC(=O)c2ccccc21 (centres undefined) ?
[A] > 100 µM

---

# Tested on: HOP-92 NSCLC
# procedure_summary: NCI tumour cell line growth inhibition, 48 h
Reported TGI values follow for various molecules
Report the value in µM with no unit label.

Past entries and their recorded results:
INSERT INTO assay_data (molecule, test_value) VALUES
  ('CCN(Cc1c(F)cccc1F)c1ccc(CO)c(Cl)c1', 0.988),
  ('Cc1ccc(-n2cc(-c3ccc(Cl)cc3)c3c2N=CN2NC(c4ccco4)=NC32)cc1 (configuration not stated)', 9.88),
  ('O=S1(=O)c2ccccc2NC(=S)N1c1ccccc1', 45.3),
  ('CC(=O)n1c(-c2ccc(Cl)cc2)nc2c(c1=O)C(c1ccc(Cl)cc1)c1sc3c(Cl)cccc3c1O2 (configuration not stated)', 4.61),
  ('CNc1ccc2c(c1)Cc1ccccc1-2', 64.1),
  ('COc1cc2c3c(n(CCCN4CCC(N)CC4)c(=O)c2cc1OC)-c1cc2c(cc1C3=O)OCO2', 1.5),
  ('NCCN1CCN(c2nccc(-c3ccc4ccccc4c3)n2)CC1', 4.01),
  ('COc1ccc2c(-c3cc4ccccc4o3)cc(=O)oc2c1', 75.3);

[Q] Would you mind telling me what TGI value was observed for FC(F)=C(c1ccc(-c2ccc(Cl)cc2)cc1)C(F)(F)F ?
[A] 33.4

[Q] Also check CC(C)(C)OC(=O)c1ccc(NCc2cc(O)ccc2O)cc1
[A] 3.4

[Q] Also check COc1ccc(/C(C)=N/NC(=S)N(C)C)c(O)c1
[A] 98.8

[Q] Also check CCCS(=O)(=O)c1nc(NC2CC2)cc(-c2ccc3c(ccn3C3CC(C)(C)NC(C)(C)C3)c2)n1
[A] 3.08

[Q] Also check COc1ccccc1C(=O)c1ccc2ccccc2c1
[A] 66.5

[Q] Also check O=[N+]([O-])c1ccc2nc3c(nc2c1)-c1c2ccccc2cc2cccc-3c12
[A] 58

[Q] Also check N#Cc1c(-c2ccccc2)nc2c(c(-c3ccccc3)nn2-c2ccccc2)c1-c1ccc(O)cc1
[A] 4.21

[Q] Also check COc1ccc(NC2=C(Br)C(=O)C(C)=C(C)C2=O)cc1
[A] 3.08

[Q] Also check C=CC(=O)Nc1cccc(Nc2nc(Nc3ccc(OCCOC)cc3)ncc2F)c1
[A] 5.34

[Q] Also check CNC(=O)c1cc(Oc2ccc(NC(=O)Nc3ccc(Cl)c(OC(F)(F)F)c3)c(F)c2)ccn1
[A] 16.8
